Source of measurements: ChEMBL document CHEMBL1147850

# Test system: Human alphaherpesvirus 1
# procedureDetails: Antiviral activity against HSV1 in Vero cells assessed as plaque infectivity reduction at 20 ug/ml
# Type: functional
# Set-up: scale not given: the % may be the effect or the level left

[
  {
    "sampleSmiles": "NNC(=O)/C(=C/c1cn(-c2ccccc2)nc1-c1ccccc1)CC(=O)c1ccc(Cl)cc1",
    "Activity (%)": 42.8
  },
  {
    "sampleSmiles": "COc1ccc(-c2cc(Cc3cn(-c4ccccc4)nc3-c3ccccc3)c(=O)[nH]n2)cc1",
    "Activity (%)": 47
  },
  {
    "sampleSmiles": "O=C(C/C(=C\\c1cn(-c2ccccc2)nc1-c1ccccc1)c1n[nH]c(=S)o1)c1ccc(Cl)cc1",
    "Activity (%)": 45
  },
  {
    "sampleSmiles": "O=C(NCc1ccccc1)/C(=C/c1cn(-c2ccccc2)nc1-c1ccccc1)CC(=O)c1ccc(Cl)cc1",
    "Activity (%)": 23.8
  },
  {
    "sampleSmiles": "NC(=O)NNC(=O)/C(=C/c1cn(-c2ccccc2)nc1-c1ccccc1)CC(=O)c1ccc(Cl)cc1",
    "Activity (%)": 52
  },
  {
    "sampleSmiles": "O=C(C/C(=C\\c1cn(-c2ccccc2)nc1-c1ccccc1)c1n[nH]c(=O)[nH]1)c1ccc(Cl)cc1",
    "Activity (%)": 14
  },
  {
    "sampleSmiles": "O=C(NNC(=O)c1ccccc1)/C(=C/c1cn(-c2ccccc2)nc1-c1ccccc1)CC(=O)c1ccc(Cl)cc1",
    "Activity (%)": 38
  },
  {
    "sampleSmiles": "COc1ccc(C2=C/C(=C\\c3cn(-c4ccccc4)nc3-c3ccccc3)C(=O)N2Cc2ccccc2)cc1",
    "Activity (%)": 45
  },
  {
    "sampleSmiles": "O=C(C/C(=C\\c1cn(-c2ccccc2)nc1-c1ccccc1)c1n[nH]c(=S)[nH]1)c1ccc(Cl)cc1",
    "Activity (%)": 38
  },
  {
    "sampleSmiles": "O=C1OC(c2ccc(Cl)cc2)=C/C1=C\\c1cn(-c2ccccc2)nc1-c1ccccc1",
    "Activity (%)": 0
  }
]
